# Tested on: interferon-α
# MEASUREMENT_DESCRIPTION: Interferon-α induction in human cells, PBM
# Type: cell-based
# CONDITION_CONTEXT: dose concentration 0.10 μg/mL, 24 hours
MEASUREMENT_TYPE: Interferon-α induction

Some entries whose results are on file:
{"COMPOUND": "CC(C)Cn1c(CCl)nc2c(N)nc3ccccc3c21.Cl [Example 10]", "MEASURED_TARGET": "interferon-α", "MEASUREMENT_TYPE": "Interferon-α induction", "RESULT": "140 α Reference Units/mL"}
{"COMPOUND": "COCc1nc2c(N)nc3ccccc3c2n1CC(C)(C)O [Example 96]", "MEASURED_TARGET": "interferon-α", "MEASUREMENT_TYPE": "Interferon-α induction", "RESULT": "1200 α Reference Units/mL"}
{"COMPOUND": "CCOCc1nc2c(N)nc3ccccc3c2n1Cc1ccccc1 [Example 93]", "MEASURED_TARGET": "interferon-α", "MEASUREMENT_TYPE": "Interferon-α induction", "RESULT": "850 α Reference Units/mL"}
{"COMPOUND": "CCOCc1nc2c(N)nc3ccccc3c2n1CCCOC [Example 44]", "MEASURED_TARGET": "interferon-α", "MEASUREMENT_TYPE": "Interferon-α induction", "RESULT": "3000 α Reference Units/mL"}
{"COMPOUND": "COC(c1ccccc1)c1nc2c(N)nc3ccccc3c2n1CC(C)C (centres unmarked) [Example 51]", "MEASURED_TARGET": "interferon-α", "MEASUREMENT_TYPE": "Interferon-α induction", "RESULT": "<5 α Reference Units/mL"}

Can you give me Interferon-α induction for all of these, one by one?
1. Nc1nc2ccccc2c2c1nc(CO)n2Cc1ccccc1 [Example 27]
2. CCOCc1nc2c(N)nc3ccccc3c2n1CCC(C)C.Cl [Example 109]
3. CC(C)Cn1c(C(C)O)nc2c(N)nc3ccccc3c21 (centres unmarked) [Example 20]

1. 3300 α Reference Units/mL
2. 1000 α Reference Units/mL
3. 190 α Reference Units/mL

###

Could you please report measured Interferon induction in mice for the items listed next?
# Test system: interferon
# MEASUREMENT_DESCRIPTION: Interferon induction in mice
# Format: in vivo
# CONDITION_CONTEXT: mouse serum, oral 10 mg/kg, 1 hr
Give bare numbers, in Reference Units/mL.

Some entries whose results are on file:
{"MOLECULE": "Nc1nc2ccccc2c2c1nc(CO)n2Cc1ccccc1", "MEASURED_TARGET": "interferon", "RECORDED_NUMBER": 130}
{"MOLECULE": "CC(C)Cn1c(CO)nc2c(N)nc3ccccc3c21", "MEASURED_TARGET": "interferon", "RECORDED_NUMBER": 330}
{"MOLECULE": "CCOCc1nc2c(N)nc3cc(Cl)ccc3c2n1CC(C)(C)O", "MEASURED_TARGET": "interferon", "RECORDED_NUMBER": 2200}
{"MOLECULE": "CCCCC(c1nc2c(N)nc3ccccc3c2n1CC(C)C)N1CCOCC1 (stereo not shown)", "MEASURED_TARGET": "interferon", "RECORDED_NUMBER": 380}
{"MOLECULE": "CC(C)Cn1c(C(O)c2ccccc2)nc2c(N)nc3ccccc3c21 (stereo not shown)", "MEASURED_TARGET": "interferon", "RECORDED_NUMBER": 2000}
{"MOLECULE": "CC(=O)NCc1nc2c(N)nc3ccccc3c2n1CC(C)C", "MEASURED_TARGET": "interferon", "RECORDED_NUMBER": 270}
{"MOLECULE": "CC(C)Cn1c(C(C)O)nc2c(N)nc3ccccc3c21 (stereo not shown)", "MEASURED_TARGET": "interferon", "RECORDED_NUMBER": 2200}
{"MOLECULE": "CC(C)Cn1c(CN=[N+]=[N-])nc2c(N)nc3ccccc3c21", "MEASURED_TARGET": "interferon", "RECORDED_NUMBER": 1100}

Can you give me Interferon induction in mice for all of these, one by one?
1. COCc1nc2c(N)nc3ccccc3c2n1CC(C)C
2. COCCn1c(COC)nc2c(N)nc3ccccc3c21

[1100, 270]

###

Could you please report measured Interferon induction in mice for the items listed next?
# Test system: interferon
# MEASUREMENT_DESCRIPTION: Interferon induction in mice
# Assay type: in vivo
# CONDITION_CONTEXT: mouse serum, oral 10 mg/kg, 1 hr
Give bare numbers, in Reference Units/mL.

{"MOLECULE": "CCOCc1nc2c(N)nc3ccccc3c2n1CC(C)C", "MEASURED_TARGET": "interferon", "Interferon induction in mice [Reference Units/mL]": 1600}
{"MOLECULE": "CCOCc1nc2c(N)nc3ccccc3c2n1CC(C)(C)O", "MEASURED_TARGET": "interferon", "Interferon induction in mice [Reference Units/mL]": 2500}
{"MOLECULE": "CCOCc1nc2c(N)nc3ccccc3c2n1Cc1ccccc1", "MEASURED_TARGET": "interferon", "Interferon induction in mice [Reference Units/mL]": 2100}
{"MOLECULE": "CCCCC(OC)c1nc2c(N)nc3ccccc3c2n1CC(C)C (stereo not drawn)", "MEASURED_TARGET": "interferon", "Interferon induction in mice [Reference Units/mL]": 290}

Query molecule follows.
Short answer for CC(=O)OC(C)c1nc2c(N)nc3ccccc3c2n1CC(C)C.O (stereo not drawn) : Interferon induction in mice was 1000

###

# Tested on: interferon-α
# MEASUREMENT_DESCRIPTION: Interferon-α induction in human cells, PBM
# Format: cell-based
# CONDITION_CONTEXT: dose concentration 0.05 μg/mL, 24 hours
MEASUREMENT_TYPE: Interferon-α induction

{"MOLECULE": "CC(C)Cn1c(CN=[N+]=[N-])nc2c(N)nc3ccccc3c21 [Example 11]", "Interferon-α induction": "330 α Reference Units/mL"}

Can you give me Interferon-α induction for all of these, one by one?
1. COCc1nc2c(N)nc3ccccc3c2n1Cc1ccccc1 [Example 104]
2. COC(C)Cc1nc2c(N)nc3ccccc3c2n1CC(C)C (stereo not drawn) [Example 77]

1. <2.7 α Reference Units/mL
2. <6.3 α Reference Units/mL

Can you give me Interferon-α induction for all of these, one by one?
1. COCc1nc2c(N)nc3ccccc3c2n1CC(C)(C)O [Example 111]
2. CC(C)(O)Cn1c(CO)nc2c(N)nc3ccccc3c21 [Example 90]
3. CCOCc1nc2c(N)nc3ccccc3c2n1CC(C)(C)O [Example 99]

1: 65 α Reference Units/mL; 2: 640 α Reference Units/mL; 3: 316 α Reference Units/mL

###

# Tested on: interferon
# MEASUREMENT_DESCRIPTION: Interferon induction in mice
# Type: in vivo
# CONDITION_CONTEXT: mouse serum, oral 1 mg/kg, 4 hr
MEASUREMENT_TYPE: Interferon induction in mice

Short answer for CC(C)(O)Cn1c(CO)nc2c(N)nc3ccccc3c21 : Interferon induction in mice was <74 Reference Units/mL

###

# Tested on: interferon-α
# MEASUREMENT_DESCRIPTION: Interferon-α induction in human cells, PBM
# Type: cell-based
# CONDITION_CONTEXT: dose concentration 0.10 μg/mL, 24 hours
MEASUREMENT_TYPE: Interferon-α induction

Can you give me Interferon-α induction for all of these, one by one?
1. CCOCc1nc2c(N)nc3ccccc3c2n1CC(C)(C)O
2. COCc1nc2c(N)nc3ccccc3c2n1CC(C)C
3. COCc1nc2c(N)nc3ccccc3c2n1Cc1ccccc1
4. COC(C)Cc1nc2c(N)nc3ccccc3c2n1CC(C)C (stereo not shown)
5. COCCc1nc2c(N)nc3ccccc3c2n1CC(C)C
6. CC(C)Cn1c(CN2CCCC2)nc2c(N)nc3ccccc3c21
7. Nc1nc2ccccc2c2c1nc(CN1CCOCC1)n2Cc1ccccc1
8. CC(C)Cn1c(CC(C)O)nc2c(N)nc3ccccc3c21 (stereo not shown)

1: 280 α Reference Units/mL; 2: 1600 α Reference Units/mL; 3: 310 α Reference Units/mL; 4: 2600 α Reference Units/mL; 5: 200 α Reference Units/mL; 6: <1.9 α Reference Units/mL; 7: <5.4 α Reference Units/mL; 8: 1100 α Reference Units/mL

Can you give me Interferon-α induction for all of these, one by one?
1. CC(C)(O)Cn1c(CO)nc2c(N)nc3ccccc3c21
2. CCOCc1nc2c(N)nc3ccccc3c2n1CC(C)C
3. CCCCC(c1nc2c(N)nc3ccccc3c2n1CC(C)C)N1CCOCC1 (stereo not shown)
4. CC(C)Cn1c(CO)nc2c(N)nc3ccccc3c21
5. CC(C)Cn1c(C(O)c2ccccc2)nc2c(N)nc3ccccc3c21 (stereo not shown)

3000 α Reference Units/mL
680 α Reference Units/mL
<5 α Reference Units/mL
140 α Reference Units/mL
3100 α Reference Units/mL
